target: Crimean-Congo hemorrhagic fever virus L protein viral ovarian tumor (vOTU) protease domain; experiment: CCHFV vOTU protease inhibitor potency, dose response, biochemical, fluorescence, Pep-AMC substrate (AID 720578); settings: recombinant CCHFV vOTU, Pep-AMC fluorescence cleavage
Activity calls are given as the source filed them. The rule behind the calls is not given here.
Hello, when you answer, please use one of the following outcomes: active, inactive

CC(C)C[C@H](NC(=O)c1[nH]cnc1C(=O)N[C@@H](C)C(=O)OC(C)(C)C)C(=O)OC(C)(C)C
inactive

Which outcome did this test record for the molecule CC(=O)[C@@H]1[C@@H]2C(=O)N(c3ccc(F)c(Cl)c3)C(=O)[C@@H]2C2c3ccccc3C=CN21 (stereo not given in full) ?
inactive

Per the records of this test, what outcome belongs to `O=c1[nH]c(Nc2ccccc2)cc2cc(Br)ccc12` ?
active
